Data credit: PubChem BioAssay (NCI)

# System: ACHN renal
# ASSAY_INFO: NCI tumour cell line growth inhibition, 48 h

- COMPOUND: "COc1ccc2nc3cc(Cl)ccc3c(Nc3ccccc3-c3ccccc3Nc3c4ccc(Cl)cc4nc4ccc(OC)cc34)c2c1"
  TGI: "> 59.2 µM"
- COMPOUND: "O=C1OC(c2ccc([N+](=O)[O-])cc2)=N/C1=C\\c1ccc(Cl)cc1"
  TGI: "> 100 µM"
- COMPOUND: "CC(C)(C)OC(=O)NC(CSCc1ccc(C(=O)c2ccccc2)cc1)C(=O)N1CCN(CCCCN2c3ccccc3Sc3cc(N=[N+]=[N-])ccc32)CC1 (centres undefined)"
  TGI: "> 100 µM"
- COMPOUND: "C=CC[P@]1(=O)O[C@H](c2ccccc2)C(C)N1C(C)C (some centres undefined)"
  TGI: "> 100 µM"
- COMPOUND: "NCC(=O)Nc1ccc(Cl)cc1C(=O)c1ccc[nH]1"
  TGI: "> 100 µM"
- COMPOUND: "O=C1CCCC2=C1CC1=C(CCCC1=O)N2c1ccc(Cl)cc1"
  TGI: "> 100 µM"
- COMPOUND: "Cc1cc2ncn(CC(=O)O)c2cc1C"
  TGI: "> 100 µM"
- COMPOUND: "O=CNC(Cc1cnc[nH]1)C(=O)O (centres undefined)"
  TGI: "> 100 µM"
- COMPOUND: "Cc1ccc([N+](=O)[O-])cc1S(=O)(=O)Nc1ccc(C2=NN(S(=O)(=O)c3cc([N+](=O)[O-])ccc3C)C(c3cccs3)C2)cc1 (centres undefined)"
  TGI: "> 100 µM"
